Data provenance is patent US20080160035A1.

target-or-test-system: T1, dimeric hIL-4R-hFc (human, UniProt P24394 26-232)
T1 construct: also called hIL-4R-Fc; not shown: human Fc (hFc)
T1 sequence: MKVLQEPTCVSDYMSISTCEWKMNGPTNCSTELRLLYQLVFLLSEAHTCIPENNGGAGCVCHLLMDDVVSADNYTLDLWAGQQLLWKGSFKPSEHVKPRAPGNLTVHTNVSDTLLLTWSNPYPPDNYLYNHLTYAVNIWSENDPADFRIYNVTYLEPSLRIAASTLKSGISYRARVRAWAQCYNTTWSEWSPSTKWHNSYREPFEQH
test-summary: SPR (BIAcore 2000); antibody captured, dimeric hIL-4R-hFc injected

- binder: "VAB 1H1-2 (antibody, V domains shown, Apparently tested with mouse constant region (anti-mouse IgG capture/detection)) VH: QVQLVQSGAEVKKPGASVKVSCKASGYTFTSYGISWVRQAPGQGLEWMGWISVYNGNTNYAQKLQGRVTMTTDTSTSTAYMDLRSLRSDDAAVYYCARGSGYDFDYWGQGTLVTVSS VL: AIQMTQSPSSLSASVGDRVTITCRASQGIRNALGWYQQKPGKAPKLLIYAASSLQSGVPSRFSGSGSGTDFTLTISSLQSEDFATYYCLQDYNYPYTFGQGTKLEIK"
  result-unit: "h"
  T1/2 dimeric: 8.2
- binder: "VAB 4D5-3 (antibody, V domains shown, Apparently tested with mouse constant region (anti-mouse IgG capture/detection)) VH: QVQLVQSGPEVKKPGASVKVSCKASGYTFTNYGISWVRQAPGQGLEWMGWISVYNGKTNYAQKFQGRVTMTTDTSTSTAYMDLRSLRSDDTAVYYCARGSGYDFDYWGQGTLVTVSS VL: AIQMTQSPSSLSASVGDRVTITCRASQGIRNALGWYQQKPGKAPKLLIFASSSLQSGVPSRFSGSGSGTDFTLTIRSLQPEDFAAYYCLQDYNYPYTFGQGTKLEIK"
  result-unit: "h"
  T1/2 dimeric: 20.4
- binder: "VAB 7B9-3 (antibody, V domains shown, Apparently tested with mouse constant region (anti-mouse IgG capture/detection)) VH: QVQLVQSGAEVKKPGASVKVSCKDSAYTFNRYGISWVRQAPGQGLEWMGWISAYTGNTVYAQKLQGRVTMTTDNSTSTAYMELRSLRSDDTAVYYCARDKSIFGVVRGFDYWGQGTLVTVSS VL: EIVMTQSPVTLSLSPGERATLPCRASQSVSSSLAWYQQKAGQSPRLLIYGASTRATGIPARFSGSGSGTEFTLTISNLQSEDFAVYYCQQYNNWPLTFGGGTKVEIK"
  result-unit: "h"
  T1/2 dimeric: 6.1
- binder: "VAK5H4-4 (antibody, V domains shown, Apparently tested with mouse constant region (anti-mouse IgG capture/detection)) VH: QVRLVESGGGVVQPGGSLRLSCVASGFTFRSYGMHWVRQAPGRGLEWVAVISYDGSKTFYVDSVKVRFTISRDNSKNTLYLEMNSLRVDDTAVYFCVKEGRSGSWFDPWGQGTLVAVSS VL: DIQMTQSPSSLSASVGDRVTITCRASQAINNFLAWFQQKPGKTPNSLIFATSSLQSGVPSRFSAGGSGTDFTLTISSLQPEDFATYYCQQYNSHPWTFGQGTKVEIK"
  result-unit: "h"
  T1/2 dimeric: 30
- binder: "VAB 10C1-5 (antibody, V domains shown, Apparently tested with mouse constant region (anti-mouse IgG capture/detection)) VH: QVQLVETGGDLVRPGGSLRLSCTASGFTLSDYYMSWIRQAPGKGLEWVSYIRRSGNTIYYADSVKGRFTISRDNAKNSLYLQMNSLRAEDTAVYYCARGGDWADVWGQGTTVTVSS VL: DIQMTQSPSSLSASVGDRVTITCRASQGISIYLAWFQQKPGKAPKSLIYAASSLQRGVPSKFSGSGSGTDFTLTISSLQPEDFATYYCQQYNSYPYTFGQGTKLEIK"
  result-unit: "h"
  T1/2 dimeric: 6.7
